# target.system: SARS-CoV-2 RBD protein Avi-tag biotinylated (AcroBiosystems SPD-C82E9) (SARS-CoV-2, UniProt P0DTC2 330-518)
# assay.text: competition AlphaLISA; competitor human ACE2-mFc
pIC50: −log10 of the molar value.

- binder: "VHH3.83 (VHH) VHH: QVQLQESGGGLVQPGDSLRLSCVLSGGVFTSYAMGWFRQAPGKEREFLAAITFNSDATYYADSVKGRFTISRDNAKNTAYLQMNSLKPNDTAVYSCAAGGNHYNPQYYHDYDKYDHWGQGTQVTVSS"
  pIC50: 9.34
- binder: "VHH3.47 (VHH) VHH: QVQLQESGGGLVQAGDSLRLSCAASGHNFSTYAMAWFRQAPGTERELVAAISENDVMRYYADSVKGRFTISRDNAKNMAYLQMNSLKVEDTAVYLCAADPKGWSEWDMDYWGKGTQVTVSS"
  pIC50: 9.14

Cited source for all entries: patent US20230227537A1
